System: MAP kinase-activated protein kinase 2 (Homo sapiens, UniProt P49137)
Sequence (P49137 whole entry): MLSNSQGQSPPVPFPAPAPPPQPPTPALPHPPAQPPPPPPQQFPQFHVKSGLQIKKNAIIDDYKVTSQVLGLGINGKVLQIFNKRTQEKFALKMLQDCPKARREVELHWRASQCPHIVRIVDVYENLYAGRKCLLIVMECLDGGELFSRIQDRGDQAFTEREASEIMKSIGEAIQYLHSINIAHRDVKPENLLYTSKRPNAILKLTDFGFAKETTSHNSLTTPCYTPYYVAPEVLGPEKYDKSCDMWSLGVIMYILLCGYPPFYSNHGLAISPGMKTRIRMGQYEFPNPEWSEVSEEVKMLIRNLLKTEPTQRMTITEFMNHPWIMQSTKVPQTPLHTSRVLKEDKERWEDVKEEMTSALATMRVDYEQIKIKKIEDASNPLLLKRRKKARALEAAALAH
Test method notes: Not found
pIC50: −log10 of the molar value.
Values of pIC50 greater than or equal to 7 map to condition met; values below map to condition not met.

Q: Identify whether the reported pIC50 of the following compound is 7 or greater: `C=C(CN1CCOCC1)c1cc(-c2ccc3c(ccc4sc5c(c43)NC[C@@H](C)NC5=O)n2)ncn1`
Result: condition met

Q: # check: pIC50 of `C=Cc1cc(-c2ccc3c(ccc4sc5c(c43)NC[C@@H](C)NC5=O)n2)cc(C=C)n1` is greater than or equal to 7
Result: condition not met

Q: Would you say `C=Cc1nc(-c2ccc3c(ccc4sc5c(c43)NC[C@@H](C)NC5=O)n2)cc(N2CCN(C)CC2)n1` shows pIC50 at minimum 7?
Result: condition met
